Where do the numbers come from? From paper PMC12416549.

Molecular target: T1, TNFR1 (Homo sapiens, UniProt P19438)
T1 chain: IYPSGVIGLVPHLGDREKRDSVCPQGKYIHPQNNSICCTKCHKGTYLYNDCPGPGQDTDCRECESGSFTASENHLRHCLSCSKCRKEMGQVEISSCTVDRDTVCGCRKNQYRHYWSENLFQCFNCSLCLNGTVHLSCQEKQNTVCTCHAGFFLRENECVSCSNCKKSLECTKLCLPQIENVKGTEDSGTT
Assay: yeast display SC50
Observable: apparent Kd (screen) (nM)
Report the figure in nM without appending any unit label.

Illustrative cases are given below, each with its answer.
E16Q (designed binder) MTLQELLREEALRRAQAEAFRYALELLAEKFPEQKEYLLDLAEEIESQIRSLSGVDVEDVRKFLDKEWAWVKELLAEHPAELAEVEAARAARLAELRAEVEAKVAA ... 0.653
V85I (designed binder) MTLQELLREEALRRAEAEAFRYALELLAEKFPEQKEYLLDLAEEIESQIRSLSGVDVEDVRKFLDKEWAWVKELLAEHPAELAEIEAARAARLAELRAEVEAKVAA ... 0.593

// lookup apparent Kd (screen) for I45G (designed binder) MTLQELLREEALRRAEAEAFRYALELLAEKFPEQKEYLLDLAEEGESQIRSLSGVDVEDVRKFLDKEWAWVKELLAEHPAELAEVEAARAARLAELRAEVEAKVAA
8.56

// lookup apparent Kd (screen) for A76G (designed binder) MTLQELLREEALRRAEAEAFRYALELLAEKFPEQKEYLLDLAEEIESQIRSLSGVDVEDVRKFLDKEWAWVKELLGEHPAELAEVEAARAARLAELRAEVEAKVAA
0.49
